assay: Biodistribution of Al^18F(IMP485) alone or TF2 pretargeted; settings: nude (Taconic), mouse, in vivo, iv, 28 uCi, total radioactivity, % ID/g Stomach, alone, 1 h post injection
quantity kind: tissue uptake at 1 h
Answer with the value and then the unit.

Given item NC(=O)[C@@H](CCCCNC(=O)CNC(=O)CCC(=O)NCCc1c[nH]cn1)NC(=O)[C@@H](Cc1ccc(O)cc1)NC(=O)[C@@H](CCCCNC(=O)CNC(=O)CCC(=O)NCCc1c[nH]cn1)NC(=O)Cc1ccc(CN2CCN(CC(=O)O)CCN(CC(=O)O)CC2)cc1 [Al^18F(IMP485)] , the value recorded as its tissue uptake at 1 h is 0.126 %ID/g
